target: T1, extracellular domain (ECD) of human epidermal growth factor receptor 2 (HER2) (Homo sapiens, UniProt P04626); experiment: SPR; BIAcore T200; HER2/ECD immobilised on a CM5 chip by amine coupling to 1000 RU; IgG flowed in PBST (0.05% Tween 20) at 30 uL/min; regeneration 10 mM glycine pH 1.5; global fit to a 1:1 binding model; settings: both partners purified
T1 construct: human epidermal growth factor receptor 2 (HER2), extracellular domain; also called HER2/ECD
QUANTITY MEASURED: pKd
# pKd: negative log10 of molar concentration; output just the value

Worked examples, 2 binders total:
1) GH2-87 IgG (antibody, V domains shown, source: HEK293-F, transient transfection, purified (Protein A, Superdex 200)) VH: EVQLVESGGGLVQPGGSLRLSCAASGFTISSYGIHWVRQAPGKGLEWVAGIGPFGGFTSYADSVKGRFTISADTSKNTAYLQMNSLRAEDTAVYYCARFLNIHLGWMDYWGQGTLVTVSS VL: DIQMTQSPSSLSASVGDRVTITCRASQDVNNSVAWYQQKPGKAPKLLIFGTRYLYSGVPSRFSGSGSGTDFTLTISSLQPEDFATYYCQQYYNYPLTFGQGTKVEIK : 7.88
2) M61 IgG (mouse anti-HER2/ECD) (antibody, V domains shown, mouse VL; L49~L53 YNAKT; L91~L96 HYGTPY; mouse VH; H50~H58 NFHPYNDDTK; H96~H100B NDGYYGA; recombinant IgG from a scFv of an immunized mouse's phage library; source: HEK293-F, transient transfection, purified (Protein A, Superdex 200)) VH: EVQLQQSGAELVKPGASVKMSCKAFGYTFTTYPIEWMKQNHGKSLEWIGNFHPYNDDTKYNEKFKGKAKLTVEKSSSTVYLELSRLTSDDSAVYYCARRNDGYYGAMDYWGQGTSVTVSS VL: DIKITQSPASLSASVGETVTITCRASENIYSYLAWYQQKQGKSPQLLVYNAKTLAEGVPSRFSGSGSGTQFSLKINSLQPEDFGSYYCQHHYGTPYTFGGGTKLELK : 9.23

// switching to the query binder
May I ask what pKd has been recorded for GH2-21 IgG (antibody, V domains shown, source: HEK293-F, transient transfection, purified (Protein A, Superdex 200)) VH: EVQLVESGGGLVQPGGSLRLSCAASGFTINDYSIHWVRQAPGKGLEWVASIWPFGGSTSYADSVKGRFTISADTSKNTAYLQMNSLRAEDTAVYYCARFNYWIGIIMDYWGQGTLVTVSS VL: DIQMTQSPSSLSASVGDRVTITCRASQDVSDNVAWYQQKPGKAPKLLIYWATGLYSGVPSRFSGSGSGTDFTLTISSLQPEDFATYYCQQYYGFPLTFGQGTKVEIK ?
8.85
